Collected protein stability index values appear next to each entry.
B1: TNXB (parent)
chain: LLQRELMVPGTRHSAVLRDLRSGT

variants of: B1; test: protein stability index of a GFP-peptide fusion (GPS, HEK-293T) (PSI 1-6); higher = more stable; settings: c terminus: a fixed tail appended;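 note: lentivirally expressed fusions sorted by FACS into six bins by GFP to DsRed ratio, PSI derived from sequencing read proportions per bin multiplied by bin number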
Answer with the value's number alone.

Example variants with recorded protein stability index:
- VARIANT_IDENTIFIER: "D19Y"
  protein stability index: 2.23
- VARIANT_IDENTIFIER: "L2G"
  protein stability index: 3.42
- VARIANT_IDENTIFIER: "R12W"
  protein stability index: 2.35
- VARIANT_IDENTIFIER: "R12F"
  protein stability index: 1.98
- VARIANT_IDENTIFIER: "M7L"
  protein stability index: 2.39
- VARIANT_IDENTIFIER: "L17V"
  protein stability index: 2.85
- VARIANT_IDENTIFIER: "T11A"
  protein stability index: 2.2
- VARIANT_IDENTIFIER: "H13P"
  protein stability index: 3.06

// protein stability index lookup, key: L20H
2.7

The measured values listed here are drawn from the supplement of paper PMC10567573.
